B1: Osa-1-4 twister ribozyme (parent)
chain: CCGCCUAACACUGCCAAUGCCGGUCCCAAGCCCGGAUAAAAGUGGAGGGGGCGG

variants of: B1; assay: self-cleavage, relative activity (ratio to wild type); higher = more cleavage; co-transcriptional
Binary classification by self-cleavage, with 0.06 as an inclusive lower bound for Met; all other cases are Not met.

>>> print(df.to_string())
                          construct_sequence  discrete_label
 0  CCGCCUAACACUGCCAAUGCCGGCCCCAAGCCCGGAUAAAAGUGGAGGCGGCGG         Not met
 1  CCGCCUAACACUGCCAAUGGCGGUCCCAAGCCCGGAUAAAGGUGGAGGGGGCGG             Met
 2  CCGCCUAACACUGCCAAUGACGGUCCCAAGCCCGGAUAAAAGAGGAGGGGGCGG             Met
 3  CCGCCUAACACUGCCAAUGCCGCUCCCAAGCCCGGAUAAAGGUGGAGGGGGCGG             Met
 4  CCGCCUAACACUGCCAAUGACGGUCCCAAGCCCGGAUAAAAGUGGAGGAGGCGG             Met
 5  CCGCCUAACACUGCCAAUGCCAGUCCCAAGCCCGGAUAAAAGUGGAGGGAGCGG             Met
 6  CCGCCUAACACUGCCAAUGCCGGUACCAAGCCCGGAUAAAAGUGGAGGGUGCGG             Met
 7  CCGCCUAGCACUGCCAAUGCCGGUCCCAAGCCGGGAUAAAAGUGGAGGGGGCGG             Met
 8  CCGCCUAACACUGCCAAUGCCGGUCCCAAGCCCGGAUACAAGUGGGGGGGGCGG         Not met
 9  CCGCCUAACACUGCCAAUGCCCGUCCCAAGCCCGGUUAAAAGUGGAGGGGGCGG             Met
10  CCGCCUAACACUGCCAAUGCCGGUCCCAAUCCCGGACAAAAGUGGAGGGGGCGG         Not met
11  CCGCCUAACACUGCCAAUGCCGGUCCCAAGCCCGGAGAAAAGUGGAGGGGACGG             Met
12  CCGCCUAACACUGCCAAUGGCGGUCCCAAGCACGGAUAAAAGUGGAGGGGGCGG         Not met
13  CCGCCUAACACUGCCAAUGCCGGUCCCAAGCCCGGAUAAAAUUGGAGCGGGCGG         Not met
14  CCGCCUAACACUGCCAAUGCCGGUCCCGAGCCCGGAUAAAAGUGGAGGGGGCAG             Met
15  CCGCCUAACACUGCCAAUGCCGGUCCCAACCCCUGAUAAAAGUGGAGGGGGCGG         Not met
16  CCGCCUUACACUGCCAAUGCCGGUCCCAAGCCCGGAUAAAAGUGGAGGUGGCGG         Not met
17  CCGCCUAACACUCCCAAUGCCGGUCCCAAGCCCGGAUAAAAGUGGAUGGGGCGG         Not met
18  CCGCCUAACACUGCCAAUGCCGGUCCCAGGCCCGGAUCAAAGUGGAGGGGGCGG             Met
19  CCGCCUAACACUGCCAAUGCCGGUCCCUAGCCCGGAUAAAAGUGGAGGGGGGGG             Met
20  CCGCCUAACACUGCCAAUGCCGGUCCCAAGCCCGGAUAACAGUGGAGGGAGCGG             Met
